Test system: Fibrinogen (Alexa647-labelled)
Assay: fibrinogen binders on compound microarrays, profiling panel, artefact control for SMM control-protein annotation, biochemical, small-molecule microarray, 635/667 nm fluorescence (AID 1131);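 further: z-score merges 667 nm fluorescence with per-spot signal-to-noise over triplicate slides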
Conditions: fibrinogen-A647 binding fluorescence, higher = more signal
metric_name: composite z-score
Response field accepts a number only; no unit should be typed.

State its composite z-score on Fibrinogen (Alexa647-labelled): CCN(CC)c1ccc(N2CC=CC34O[C@@H]5C=CCOC(=O)[C@@H]5[C@H]3C(=O)N(CCCO)[C@@H]4C2=O)cc1 (stereo partly specified)
-0.973

State its composite z-score on Fibrinogen (Alexa647-labelled): C=CCC(OC(C)=O)[C@@H]1[C@@H](N(Cc2ccc(-c3cccc(C(F)(F)F)c3)o2)C(=O)Cc2ccc(F)cc2)c2cc(OCCCO)ccc2N1C(=O)c1ccc2ccccc2c1 (stereo partly specified)
-1.67

State its composite z-score on Fibrinogen (Alexa647-labelled): CC(C)c1ccc(NN2C(C(O)C(C)C)C=CC3C(=O)N(c4ccccc4)C(=O)C32)cc1 (stereo unspecified)
1.04

State its composite z-score on Fibrinogen (Alexa647-labelled): N#Cc1ccc(C(O)C2C=CC3C(=O)N(c4ccccc4)C(=O)C3N2Nc2ccc([N+](=O)[O-])cc2)cc1 (stereo unspecified)
0.991

State its composite z-score on Fibrinogen (Alexa647-labelled): COCCOC(=O)N1C(=O)[C@@]2(c3cc(C#CCCO)ccc31)[C@H](C(=O)N1CCc3cc(OC)c(OC)cc3C1)[C@H]1C(=O)O[C@H](c3ccccc3)[C@H](c3ccccc3)N1[C@@H]2c1ccccc1OCCO
0.87

State its composite z-score on Fibrinogen (Alexa647-labelled): Cc1ccc(S[C@]2(C(=O)NCC(F)(F)F)CC(=O)N(C3CCCCC3)[C@@H]2c2ccc(CO)cc2)cc1
-0.0988

State its composite z-score on Fibrinogen (Alexa647-labelled): C=CCC(OC(C)=O)[C@@H]1[C@@H](N(Cc2cc3ccccc3o2)C(=O)c2ccc(-c3ccccc3)cc2)c2cc(OCCCO)ccc2N1C(=O)c1ccc2ccccc2n1 (stereo partly specified)
-0.858

State its composite z-score on Fibrinogen (Alexa647-labelled): CC(C)CNC(=O)[C@@H]1c2ccccc2C(=O)N(Cc2ccccc2)[C@H]1c1ccc(CO)cc1
-0.66

State its composite z-score on Fibrinogen (Alexa647-labelled): CCCC[C@@H]1C[C@H]1[C@@H](NC(=O)Cc1ccccc1)c1ccc(Cl)cc1
1.02

State its composite z-score on Fibrinogen (Alexa647-labelled): CC(C)C[C@H]1NC(=O)[C@@H](C)NC(=O)[C@@]23C(=O)N[C@@H](Cc4ccccc4)C2[C@H](C)[C@@]2(C)O[C@H]2C3/C=C/C/C=C\CNC1=O (stereo partly specified)
-0.212

State its composite z-score on Fibrinogen (Alexa647-labelled): C=C(COC)/C(=C/C[C@H](OC(=O)c1ccncc1)c1cccc(OCCO)c1)c1cnc2ccccc2c1
0.893

State its composite z-score on Fibrinogen (Alexa647-labelled): CC=CC(O)C1C=CC2C(=O)N(C)C(=O)C2N1NC(=O)OC(C)(C)C (stereo unspecified)
0.516

State its composite z-score on Fibrinogen (Alexa647-labelled): C=CC[C@@]1(C(=O)N(C)C)N=C(c2ccc(OCCCO)cc2)O[C@@H]1c1ccccc1
0.3

State its composite z-score on Fibrinogen (Alexa647-labelled): COc1ccc(C#Cc2ccc3c(c2)[C@]2(C(=O)N3)[C@H](C(=O)Nc3nc4ccccc4s3)[C@H]3C(=O)O[C@H](c4ccccc4)[C@H](c4ccccc4)N3[C@@H]2c2ccc(OCCO)cc2)cc1
0.731

State its composite z-score on Fibrinogen (Alexa647-labelled): CCCC[C@@H]1C[C@H]1[C@@H](NC(=O)c1ccc(C(F)(F)F)cc1)c1ccc(C(=O)OC)cc1
0.366

State its composite z-score on Fibrinogen (Alexa647-labelled): COc1ccc(C(O)C2C=CC3C(=O)N(C)C(=O)C3N2Nc2ccc([N+](=O)[O-])cc2[N+](=O)[O-])cc1OCc1ccccc1 (stereo unspecified)
0.545

State its composite z-score on Fibrinogen (Alexa647-labelled): CC[C@H](C)C(=O)O[C@H]1CC[C@]2(C)C3=C(CCC2C1(C)C)[C@]1(C)CC[C@H]([C@H](C)CCCC(C)C)[C@@]1(C)CC3 (stereo partly specified)
0.367

State its composite z-score on Fibrinogen (Alexa647-labelled): CC(c1ccccc1)C(O)C1C=CC2C(=O)N(c3ccccc3)C(=O)C2N1Nc1ccc(C#N)cc1 (stereo unspecified)
0.993

State its composite z-score on Fibrinogen (Alexa647-labelled): C#CCN(C/C=C/c1ccccc1)[C@H](CO[Si](C)(C)C(C)(C)C)c1ccccc1
-0.759

State its composite z-score on Fibrinogen (Alexa647-labelled): COc1ccc([Si](C)(C)[C@@H]2[C@@H](CC(=O)N(CCO)Cc3ccccc3)O[C@]3(C(=O)N(Cc4ccc(N5CCC5=O)cc4)c4ccccc43)[C@H]2C)cc1
-0.263

State its composite z-score on Fibrinogen (Alexa647-labelled): COc1ccccc1CN1C(=O)c2ccccc2[C@@H](C(=O)NCCCN(C)C)[C@@H]1c1ccc(CO)cc1
-0.741

State its composite z-score on Fibrinogen (Alexa647-labelled): C=C(CCCC)C(=O)CC[C@H](OC(C)=O)c1ccccc1OCCO
-0.107

State its composite z-score on Fibrinogen (Alexa647-labelled): CCOC(=O)C[C@H]1[C@H](OC(=O)c2ccc(C(=O)c3ccccc3)cc2)[C@@H](NC(=O)c2ccc3ccccc3c2)c2cc(OCCCO)ccc2N1C(=O)c1ccc2ccccc2n1
0.892

State its composite z-score on Fibrinogen (Alexa647-labelled): CN1C=C(C(=O)OCCS(C)(=O)=O)C(C(=O)OCCS(C)(=O)=O)=CC(CCCO)=CC1c1ccc(CN2CCCC2)cc1 (stereo unspecified)
0.894

State its composite z-score on Fibrinogen (Alexa647-labelled): CCCC=C(CCC)[C@@H](NC(=O)c1ccco1)c1ccc(C(=O)OC)cc1
0.984

State its composite z-score on Fibrinogen (Alexa647-labelled): [N-]=[N+]=Nc1ccccc1[C@@H]1OC(c2ccc(OCCCO)cc2)=N[C@]1(Cc1ccccc1)C(N)=O
0.899

Hey, just so you know, these numbers are from PubChem BioAssay.
